Target: recombinant guanylate cyclase reporter cell line (Rattus norvegicus, UniProt P19686+P20595)
Construct: expressed in transfected cells; host or cells: recombinant reporter cell line
Sequence (P19686 whole entry): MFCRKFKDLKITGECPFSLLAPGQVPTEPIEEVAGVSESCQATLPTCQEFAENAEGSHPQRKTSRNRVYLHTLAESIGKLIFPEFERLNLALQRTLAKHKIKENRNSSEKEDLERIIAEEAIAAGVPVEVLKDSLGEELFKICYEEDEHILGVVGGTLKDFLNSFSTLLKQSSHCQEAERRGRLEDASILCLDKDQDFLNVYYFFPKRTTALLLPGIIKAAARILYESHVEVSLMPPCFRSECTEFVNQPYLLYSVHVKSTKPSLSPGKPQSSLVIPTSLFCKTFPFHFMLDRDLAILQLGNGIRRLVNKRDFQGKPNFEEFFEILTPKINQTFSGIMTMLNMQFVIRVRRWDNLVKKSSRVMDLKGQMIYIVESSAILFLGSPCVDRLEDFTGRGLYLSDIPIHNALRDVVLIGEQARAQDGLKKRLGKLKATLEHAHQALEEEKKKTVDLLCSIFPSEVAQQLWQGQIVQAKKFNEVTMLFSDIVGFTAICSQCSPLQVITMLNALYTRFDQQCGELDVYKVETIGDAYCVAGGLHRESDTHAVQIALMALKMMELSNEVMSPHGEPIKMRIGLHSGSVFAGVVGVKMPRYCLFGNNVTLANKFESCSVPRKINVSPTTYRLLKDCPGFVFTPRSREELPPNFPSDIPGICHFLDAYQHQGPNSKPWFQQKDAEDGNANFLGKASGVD
Sequence (P20595 whole entry): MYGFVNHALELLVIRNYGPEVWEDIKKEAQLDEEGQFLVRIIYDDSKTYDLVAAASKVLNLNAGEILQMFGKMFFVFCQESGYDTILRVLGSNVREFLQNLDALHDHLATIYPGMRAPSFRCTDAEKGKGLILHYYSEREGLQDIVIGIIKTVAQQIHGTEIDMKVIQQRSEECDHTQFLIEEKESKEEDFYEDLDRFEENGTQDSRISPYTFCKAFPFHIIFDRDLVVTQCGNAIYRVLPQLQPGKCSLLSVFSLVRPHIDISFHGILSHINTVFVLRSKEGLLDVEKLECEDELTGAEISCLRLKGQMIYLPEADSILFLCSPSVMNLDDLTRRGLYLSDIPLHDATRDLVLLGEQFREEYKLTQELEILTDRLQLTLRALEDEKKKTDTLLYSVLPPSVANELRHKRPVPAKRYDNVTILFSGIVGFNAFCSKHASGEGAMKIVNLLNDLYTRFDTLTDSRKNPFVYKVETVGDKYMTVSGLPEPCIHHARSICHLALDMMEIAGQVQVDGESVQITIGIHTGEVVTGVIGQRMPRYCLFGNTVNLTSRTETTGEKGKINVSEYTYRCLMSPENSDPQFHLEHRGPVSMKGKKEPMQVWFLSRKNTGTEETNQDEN
Assay: Action on recombinant guanylate cyclase reporter cell line
Type: cell-based
Details: in some cases mean values from individual determinations
reportedProperty: MEC (minimal effective concentration) (µM)
API: value field is a number in µM; no unit string.

Example entries and their recorded answers appear below.
compound: Cc1cc(OCc2c(F)ccc(F)c2F)c2nc(C)c(C(=O)NCC(C)(N)CF)n2c1 (single isomer, unassigned; enantiomer b) [Example 286]
MEC (minimal effective concentration) [µM]: 0.1
--
compound: Cc1nc2c(OCc3c(F)cccc3F)cccn2c1C(=O)NC12CNCCC1C2 (racemic) [Example 125]
MEC (minimal effective concentration) [µM]: 1.00
--
compound: Cc1cc(OCc2c(F)cccc2F)c2nc(C)c(C(=O)NC(CN)c3cccc(OC(F)F)c3)n2c1 (racemic)
MEC (minimal effective concentration) [µM]: 1.00

Request: Sample COc1cccc(C(N)CNC(=O)c2c(C)nc3c(OCc4c(F)cccc4F)cc(C)cn23)c1 (racemic) — what was its MEC (minimal effective concentration)?
Result: 1.00

Request: Also Cc1cc(OCc2c(F)cccc2F)c2nc(C)c(C(=O)NCC(C)(N)C3CC3)n2c1 (single isomer, unassigned; enantiomer b) [Example 261] ?
Result: 0.10
